Readings of viability for the listed compounds
# protocolDetails: reduced viability of SK-BR-3 breast cancer cells – cell-based, 24 h, human, pilot screen (AID 572);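 also: compound exposure lasted between 18 and 24 h rather than exactly 24 h; 100% = carrier-treated control wells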
# runConditions: SK-BR-3 viability, CellTiter-Glo luminescence, at 10 µM, stronger effect = lower value
Give the number; % is assumed, so skip it.

CC1CC(C)CN(Cc2nc3c(c(=O)n(C)c(=O)n3C)n2Cc2ccccc2Cl)C1 (stereo unspecified); 87.5
Cc1nc2sc(C(c3cccs3)N3CC(C)CC(C)C3)c(O)n2n1 (stereo unspecified); 89.5
CCN(CC)C(=O)c1ccc(CS(=O)(=O)c2ccc(OC)cc2)o1; 84.5

q: // query viability value for entry CC1CCc2nn(CC(=O)NCc3ccc(F)cc3)cc2C1 (stereo unspecified)
a: 122

q: // query viability value for entry CCCCN(C)C(=O)c1ccc(CS(=O)(=O)c2ccccc2C)o1
a: 93

q: // query viability value for entry CC(C)CCN(C)C1CCN(S(=O)(=O)c2ccc(F)cc2)CC1
a: 87
